System: CAKI-1
method-notes: NCI tumour cell line growth inhibition, 48 h
Calls of active or inactive are those of the source. Rule as the data show it: active = GI50 up to about 1.1 µM and inactive = higher.
Form field: GI50 (one value per entry).

compound	GI50
O=c1c2nn[nH]c2nc2n1CC(c1ccccc1)S2 (stereo not drawn)	13 µM (inactive)
COC1=N[C@H](C(C)C)C(OC)=N[C@H]1Cc1ccc(C[C@@H]2N=C(OC)[C@@H](C(C)C)N=C2OC)s1	50.2 µM (inactive)
CC(=O)NNc1nc(C)c(C(/C=C/c2ccccc2O)=N/NC(=O)c2ccncc2)s1	> 100 µM (inactive)
CCOC(=O)C(NC(C)=O)(Nc1ccc(F)cc1)C(F)(F)F (stereo not drawn)	> 100 µM (inactive)
C=CC1(C)/C(=N\O)C(C)(CC)C(=O)N1O (stereo not drawn)	> 100 µM (inactive)
CC1=C(c2cc(C(=O)Nc3cccc(C(F)(F)F)c3)ncn2)Sc2ccccc2N1	> 100 µM (inactive)
O=C1c2scc(-c3ccc(F)cc3)c2-n2cccc21	10.3 µM (inactive)
CN1C(=O)C(O)CC1c1ccc(C(F)(F)F)cc1 (stereo not drawn)	> 100 µM (inactive)
